The measurements presented in this section are drawn from the supplement of paper PMC8866396.

# Lookup of reported cell viability keyed by entry
Test system: IL-6-GFP PC-9GR
Assay: cell viability (CCK-8 OD) relative to DMSO control (fraction of control); higher = more viable cells
Settings: compound concentration: 10 uM; treatment time: 48 h

[
  {
    "Compound": "CC(=O)OC12COC1CC(O)C1(C)C(=O)C(O)C3=C(C)C(OC(=O)C(O)C(NC(=O)OC(C)(C)C)c4ccccc4)CC(O)(C(OC(=O)c4ccccc4)C21)C3(C)C.O.O.O (stereo unspecified) [Docetaxel Trihydrate]",
    "cell viability": 0.528
  },
  {
    "Compound": "CC12CCC(CC1)C(C)(C)O2",
    "cell viability": 1.29
  },
  {
    "Compound": "CC1(C(=O)O)CCC2(C)CCC3(C)C(=CC(=O)C4C5(C)CCC(OC6OC(C(=O)O)C(O)C(O)C6OC6OC(C(=O)O)C(O)C(O)C6O)C(C)(C)C5CCC43C)C2C1.N.N (stereo unspecified) [Diammonium Glycyrrhizinate]",
    "cell viability": 1.11
  },
  {
    "Compound": "COc1cc2c(cc1OC)C1CC(OC(=O)C(N)C(C)C)C(CC(C)C)CN1CC2.Cc1ccc(S(=O)(=O)O)cc1.Cc1ccc(S(=O)(=O)O)cc1 (stereo unspecified) [Valbenazine tosylate]",
    "cell viability": 0.833
  },
  {
    "Compound": "Cc1ccc(-c2cc(C(F)(F)F)nn2-c2ccc(S(N)(=O)=O)cc2)cc1",
    "cell viability": 1.13
  }
]

Please examine the following record next.
Input line: Name the recorded cell viability of the item CC1=NN(c2ccc(C)c(C)c2)C(=O)/C1=N\Nc1cccc(-c2cccc(C(=O)O)c2)c1O.NCCO.NCCO in your answer.
Output line: 1.23
